Tested target: Histone deacetylase 8 (Homo sapiens, UniProt Q9BY41)
Sequence (Q9BY41 whole entry): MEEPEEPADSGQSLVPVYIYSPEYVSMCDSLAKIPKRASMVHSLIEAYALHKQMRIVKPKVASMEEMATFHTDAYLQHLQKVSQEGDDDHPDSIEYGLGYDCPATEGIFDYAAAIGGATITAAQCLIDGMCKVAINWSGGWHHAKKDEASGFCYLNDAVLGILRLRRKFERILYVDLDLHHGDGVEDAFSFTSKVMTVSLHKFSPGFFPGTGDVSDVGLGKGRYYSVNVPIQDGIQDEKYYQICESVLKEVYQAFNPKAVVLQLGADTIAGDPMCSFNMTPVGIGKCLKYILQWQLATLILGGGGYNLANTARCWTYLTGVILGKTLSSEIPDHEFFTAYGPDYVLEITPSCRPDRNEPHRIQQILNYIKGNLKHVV
Method: Inhibition of recombinant human N-terminal His6-SUMO-tagged C-terminal SII-tagged HDAC8 expressed in Escherichia coli (BL21) DE3 pLysS cells using BocLys(trifluoroacetyl)-AMC as substrate incubated for 30 mins by fluorescence assay
# pIC50 per record follows
When answering, recall that pIC50 equals minus log10 of the concentration in mol/L, and write that number alone.

O=C1NC(=O)/C(=C\c2ccc(OCC(=O)N3N=C(c4ccccc4)CC3c3ccc(Cl)c(Cl)c3)cc2)S1 (centres undefined) = 5.00

Value lookup for pIC50; key = O=C1NC(=O)/C(=C\c2ccc(OCC(=O)N3N=C(c4ccccc4)CC3c3ccc(Br)cc3)cc2)S1 (centres undefined) 4.46

Follow-up item: Cc1ccc(C2CC(c3ccccc3)=NN2C(=O)COc2ccc(/C=C3/SC(=O)NC3=O)cc2)cc1 (centres undefined) 4.51

For O=C1NC(=O)/C(=C\c2ccc(OCC(=O)N3N=C(c4ccccc4)CC3c3ccc(F)cc3)cc2)S1 (centres undefined) then? 4.59

What do you get for O=C1NC(=O)/C(=C\c2ccc(OCC(=O)N3N=C(c4ccccc4)CC3c3ccccc3)cc2)S1 (centres undefined) ? 4.70

----------
Tested target: Histone deacetylase 2 (Homo sapiens)
Sequence (Q92769 whole entry): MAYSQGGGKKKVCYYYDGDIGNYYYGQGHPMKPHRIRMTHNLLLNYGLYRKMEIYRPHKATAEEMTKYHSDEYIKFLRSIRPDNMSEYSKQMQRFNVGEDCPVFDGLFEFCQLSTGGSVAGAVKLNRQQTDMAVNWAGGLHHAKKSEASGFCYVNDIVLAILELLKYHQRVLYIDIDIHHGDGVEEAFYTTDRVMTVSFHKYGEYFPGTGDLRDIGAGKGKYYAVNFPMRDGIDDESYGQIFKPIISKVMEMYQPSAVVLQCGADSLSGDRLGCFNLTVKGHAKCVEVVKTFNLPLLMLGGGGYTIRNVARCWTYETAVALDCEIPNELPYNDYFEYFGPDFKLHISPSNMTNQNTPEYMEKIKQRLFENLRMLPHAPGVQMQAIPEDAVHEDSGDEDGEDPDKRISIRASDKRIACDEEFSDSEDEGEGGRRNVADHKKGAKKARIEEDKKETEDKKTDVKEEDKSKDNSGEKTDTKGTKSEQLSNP
Method: Inhibition of recombinant human HDAC2 Boc-Lys(acetyl)-AMC as substrate incubated for 30 mins by fluorescence assay
IC50 values, listed per item
Give a bare numeral; the unit µM is implied.

O=C1NC(=O)/C(=C\c2ccc(OCC(=O)N3N=C(c4ccccc4)CC3c3ccc(Cl)c(Cl)c3)cc2)S1 (stereo not drawn) = 13

Proceeding to the next compound to report its IC50.
What value of IC50 has been reported for the following compound? O=C1NC(=O)/C(=C\c2ccc(OCC(=O)N3N=C(c4ccc(F)cc4)CC3c3ccc(Cl)c(Cl)c3)cc2)S1 (stereo not drawn) 21

----------
Listed compounds paired with reported pIC50
Tested target: Histone deacetylase 4 (Homo sapiens, UniProt P56524)
Sequence (P56524 whole entry): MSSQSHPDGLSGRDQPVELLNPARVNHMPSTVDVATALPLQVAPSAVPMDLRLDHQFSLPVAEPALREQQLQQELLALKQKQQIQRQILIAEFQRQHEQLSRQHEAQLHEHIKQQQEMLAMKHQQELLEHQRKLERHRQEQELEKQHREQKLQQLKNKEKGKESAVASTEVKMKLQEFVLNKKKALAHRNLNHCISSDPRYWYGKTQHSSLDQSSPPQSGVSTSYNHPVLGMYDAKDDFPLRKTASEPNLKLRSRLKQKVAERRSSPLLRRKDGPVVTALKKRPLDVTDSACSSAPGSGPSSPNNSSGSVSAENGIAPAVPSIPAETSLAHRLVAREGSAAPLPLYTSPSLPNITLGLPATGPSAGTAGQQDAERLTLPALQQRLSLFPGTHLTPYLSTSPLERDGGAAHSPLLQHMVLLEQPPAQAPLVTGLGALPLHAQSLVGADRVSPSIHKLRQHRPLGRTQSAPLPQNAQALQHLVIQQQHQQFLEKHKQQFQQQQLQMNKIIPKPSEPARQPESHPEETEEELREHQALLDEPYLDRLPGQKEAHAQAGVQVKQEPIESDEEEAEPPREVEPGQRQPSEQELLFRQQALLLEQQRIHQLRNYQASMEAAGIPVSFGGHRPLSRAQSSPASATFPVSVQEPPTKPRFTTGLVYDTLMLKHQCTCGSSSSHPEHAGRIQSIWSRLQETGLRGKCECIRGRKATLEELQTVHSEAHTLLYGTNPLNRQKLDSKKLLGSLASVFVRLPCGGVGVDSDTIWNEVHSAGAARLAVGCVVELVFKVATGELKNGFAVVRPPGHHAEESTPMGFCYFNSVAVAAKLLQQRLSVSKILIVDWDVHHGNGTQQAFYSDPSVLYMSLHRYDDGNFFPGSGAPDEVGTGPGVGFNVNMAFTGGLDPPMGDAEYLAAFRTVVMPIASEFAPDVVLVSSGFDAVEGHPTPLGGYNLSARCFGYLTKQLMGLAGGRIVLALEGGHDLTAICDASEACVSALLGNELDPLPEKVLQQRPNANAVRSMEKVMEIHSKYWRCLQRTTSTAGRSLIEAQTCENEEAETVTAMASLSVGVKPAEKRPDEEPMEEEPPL
Method: Inhibition of recombinant human N-terminal His6-SUMO-tagged C-terminal SII-tagged HDAC4 expressed in Escherichia coli (BL21) DE3 pLysS cells using BocLys(trifluoroacetyl)-AMC as substrate incubated for 30 mins by fluorescence assay
Lab note — pIC50 values are minus log10 of concentrations in M.

# example entries with known answers
O=C1NC(=O)/C(=C\c2ccc(OCC(=O)N3N=C(c4ccccc4)CC3c3ccc(C(F)(F)F)cc3)cc2)S1 (stereo not given) = 6.00
O=C1NC(=O)/C(=C\c2ccc(OCC(=O)N3N=C(c4ccccc4)CC3c3ccccc3Cl)cc2)S1 (stereo not given) = 5.92
O=C1NC(=O)/C(=C\c2ccc(OCC(=O)N3N=C(c4ccc(F)cc4F)CC3c3ccco3)cc2)S1 (stereo not given) = 4.82

pIC50 lookup needed for O=C1NC(=O)/C(=C\c2ccc(OCC(=O)N3N=C(c4ccccc4)CC3c3ccccc3)cc2)S1 (stereo not given) , thanks. 5.80

Can you handle Cc1ccc(C2CC(c3ccccc3)=NN2C(=O)COc2ccc(/C=C3/SC(=O)NC3=O)cc2)cc1 (stereo not given) next? 5.92

# iterate: Cc1ccc(C2CC(c3ccc(F)cc3F)=NN2C(=O)COc2ccc(/C=C3/SC(=O)NC3=O)cc2)cc1 (stereo not given) 5.82

Would you kindly repeat that for O=C1NC(=O)/C(=C\c2ccc(OCC(=O)N3N=C(c4ccc(F)cc4)CC3c3ccccc3Cl)cc2)S1 (stereo not given) ? 5.96

Can you handle O=C1NC(=O)/C(=C\c2ccc(OCC(=O)N3N=C(c4ccccc4)CC3c3ccc(Cl)c(Cl)c3)cc2)S1 (stereo not given) next? 6.15

Also check O=C1NC(=O)/C(=C\c2ccc(OCC(=O)N3N=C(c4ccc(F)cc4F)CC3c3ccc(F)cc3)cc2)S1 (stereo not given) 5.82

Record: O=C1NC(=O)/C(=C\c2ccc(OCC(=O)N3N=C(c4ccccc4)CC3c3ccc(F)cc3F)cc2)S1 (stereo not given) 5.66

Further, for O=C1NC(=O)/C(=C\c2ccc(OCC(=O)N3N=C(c4ccc(F)cc4)CC3c3ccc(F)cc3F)cc2)S1 (stereo not given) ? 5.80

Request: Cc1ccc(C2CC(c3ccc(F)cc3)=NN2C(=O)COc2ccc(/C=C3/SC(=O)NC3=O)cc2)cc1 (stereo not given) 5.74

----------
// pIC50 lookup, one value per entry
Tested target: Histone deacetylase 4 (Homo sapiens)
Method: Inhibition of recombinant human N-terminal His6-SUMO-tagged C-terminal SII-tagged HDAC4 expressed in Escherichia coli (BL21) DE3 pLysS cells using BocLys(trifluoroacetyl)-AMC as substrate incubated for 30 mins by fluorescence assay
// field semantics: pIC50 = negative decimal log of concentration (mol/L)

Sample answers from the record:
O=C1NC(=O)/C(=C\c2ccc(OCC(=O)N3N=C(c4ccccc4)CC3c3ccc(Br)cc3)cc2)S1 (centres undefined) = 5.92
O=C1NC(=O)/C(=C\c2ccc(OCC(=O)N3N=C(c4ccc(F)cc4)CC3c3ccc(F)cc3)cc2)S1 (centres undefined) = 5.85
O=C1NC(=O)/C(=C\c2ccc(OCC(=O)N3N=C(c4ccc(F)cc4)CC3c3ccccc3)cc2)S1 (centres undefined) = 5.38

// switching to the query molecule
Any idea what its pIC50 is? The molecule is O=C1NC(=O)/C(=C\c2ccc(OCC(=O)N3N=C(c4ccccc4)CC3c3ccc(F)cc3)cc2)S1 (centres undefined) 5.77

----------
Tested on: MCF7
Method: Antiproliferative activity against human MCF7 cells assessed as reduction in cell viability after 48 hrs by MTT assay
Assay type: functional, cell-based
Experimental setup: MCF7, 48 h
Attribute measured: pIC50
Conceptually, pIC50 converts a concentration in mol/L into minus its log10.

Requested field: pIC50. Item: O=C1NC(=O)/C(=C\c2ccc(OCC(=O)N3N=C(c4ccc(F)cc4)CC3c3ccco3)cc2)S1 (stereo unspecified) 4.55

----------
Tested target: Vascular endothelial growth factor receptor 2 (Homo sapiens)
Sequence (P35968 whole entry): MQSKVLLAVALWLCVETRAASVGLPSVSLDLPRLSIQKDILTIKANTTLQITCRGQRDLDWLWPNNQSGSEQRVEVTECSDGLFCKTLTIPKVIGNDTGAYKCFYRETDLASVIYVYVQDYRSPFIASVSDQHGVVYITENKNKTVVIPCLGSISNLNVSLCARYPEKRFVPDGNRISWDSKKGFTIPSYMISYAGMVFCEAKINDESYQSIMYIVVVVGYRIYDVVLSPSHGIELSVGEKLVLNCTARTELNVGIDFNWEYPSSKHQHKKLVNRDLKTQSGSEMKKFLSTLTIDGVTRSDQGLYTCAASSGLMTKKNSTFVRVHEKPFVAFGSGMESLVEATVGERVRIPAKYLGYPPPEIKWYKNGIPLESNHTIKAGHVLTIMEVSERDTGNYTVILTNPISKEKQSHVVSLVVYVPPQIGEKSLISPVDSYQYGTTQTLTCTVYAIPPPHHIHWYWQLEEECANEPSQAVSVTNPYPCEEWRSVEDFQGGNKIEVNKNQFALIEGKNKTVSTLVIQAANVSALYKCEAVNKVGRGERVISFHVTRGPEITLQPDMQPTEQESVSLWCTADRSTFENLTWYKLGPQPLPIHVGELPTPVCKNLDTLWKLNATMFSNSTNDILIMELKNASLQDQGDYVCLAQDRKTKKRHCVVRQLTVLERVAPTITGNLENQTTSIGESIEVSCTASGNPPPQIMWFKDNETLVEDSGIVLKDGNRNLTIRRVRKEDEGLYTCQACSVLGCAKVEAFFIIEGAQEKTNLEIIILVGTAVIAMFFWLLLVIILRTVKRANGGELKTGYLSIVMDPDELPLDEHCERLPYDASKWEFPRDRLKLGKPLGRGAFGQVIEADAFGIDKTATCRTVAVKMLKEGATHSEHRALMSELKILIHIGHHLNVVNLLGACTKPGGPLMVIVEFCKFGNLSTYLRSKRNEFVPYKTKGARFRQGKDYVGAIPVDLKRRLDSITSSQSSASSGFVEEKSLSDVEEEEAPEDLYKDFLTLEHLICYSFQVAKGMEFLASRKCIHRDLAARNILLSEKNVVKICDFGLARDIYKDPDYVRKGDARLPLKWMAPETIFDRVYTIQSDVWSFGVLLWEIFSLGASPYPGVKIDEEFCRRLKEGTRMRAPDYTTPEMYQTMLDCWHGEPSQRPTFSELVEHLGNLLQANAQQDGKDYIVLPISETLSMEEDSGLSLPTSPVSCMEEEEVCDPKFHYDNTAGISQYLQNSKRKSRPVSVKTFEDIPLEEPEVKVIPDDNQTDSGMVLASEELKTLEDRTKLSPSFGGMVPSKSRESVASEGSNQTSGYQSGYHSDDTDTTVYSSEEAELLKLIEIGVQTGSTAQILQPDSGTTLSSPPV
Method: Inhibition of human VEGFR2 in HUVEC cells assessed as reduction in VEGFR2 phosphorylation incubated for 30 mins by anti-phospho VEGF Tyr 1175 antibody based assay
Attribute measured: pIC50
pIC50 is defined as minus the log10 of a concentration measured in mol/L.

I am curious: what pIC50 value has been reported for O=C1NC(=O)/C(=C\c2ccc(OCC(=O)N3N=C(c4ccc(F)cc4)CC3c3ccco3)cc2)S1 (stereo unspecified) ? 5.30

----------
Method: Cytotoxicity against HUVEC cells assessed as reduction in cell viability after 96 hrs by MTT assay
Experimental setup: human
Attribute measured: IC50 at 96 h

Cc1ccc(C2CC(c3ccc(F)cc3F)=NN2C(=O)COc2ccc(/C=C3/SC(=O)NC3=O)cc2)cc1 (centres undefined) = > 10 µM

Which IC50 at 96 h is reported for this compound? O=C1NC(=O)/C(=C\c2ccc(OCC(=O)N3N=C(c4ccc(F)cc4)CC3c3ccccc3)cc2)S1 (centres undefined) > 10 µM

Would you mind doing O=C1NC(=O)/C(=C\c2ccc(OCC(=O)N3N=C(c4ccc(F)cc4)CC3c3ccc(Cl)c(Cl)c3)cc2)S1 (centres undefined) as well? 2 µM

Note, next up: O=C1NC(=O)/C(=C\c2ccc(OCC(=O)N3N=C(c4ccccc4)CC3c3ccc(C(F)(F)F)cc3)cc2)S1 (centres undefined) > 10 µM

Same question for O=C1NC(=O)/C(=C\c2ccc(OCC(=O)N3N=C(c4ccc(F)cc4)CC3c3ccc(F)cc3)cc2)S1 (centres undefined) please. > 10 µM

Follow-up item: O=C1NC(=O)/C(=C\c2ccc(OCC(=O)N3N=C(c4ccccc4)CC3c3ccccc3Cl)cc2)S1 (centres undefined) 2 µM

Also O=C1NC(=O)/C(=C\c2ccc(OCC(=O)N3N=C(c4ccc(F)cc4)CC3c3ccco3)cc2)S1 (centres undefined) ? 0.7 µM

What do you have for O=C1NC(=O)/C(=C\c2ccc(OCC(=O)N3N=C(c4ccccc4)CC3c3ccc(Cl)c(Cl)c3)cc2)S1 (centres undefined) ? > 10 µM

Try this compound too: O=C1NC(=O)/C(=C\c2ccc(OCC(=O)N3N=C(c4ccc(F)cc4)CC3c3ccc(C(F)(F)F)cc3)cc2)S1 (centres undefined) 6 µM

Each recorded value in this set is attributed to ChEMBL document CHEMBL5120742.
